Item-by-item account of Fold depletion in AML
System: tet-on competent MLL/AF9+Nras AML
protocol: Pooled negative selection RNAi screening (deep sequencing)
Assay type: cell-based, mouse
applied conditions: deep sequencing reads, On Dox compared to T0
measured parameter: Fold depletion in AML (Fold)

>>> endpoint_result("Trpm4.2813: shRNA, SEQ ID NO: 188 (nucleic acid) TGCTGTTGACAGTGAGCGACAAGATTGTCATAGTGAGCAATAGTGAAGCCACAGATGTATTGCTCACTATGACAATCTTGGTGCCTACTGCCTCGGA")
20.52
>>> endpoint_result("S100a9.148: shRNA, SEQ ID NO: 177 (nucleic acid) TGCTGTTGACAGTGAGCGCCAGACAAATGGTGGAAGCACATAGTGAAGCCACAGATGTATGTGCTTCCACCATTTGTCTGATGCCTACTGCCTCGGA")
13.18
>>> endpoint_result("Tex14.3976: shRNA, SEQ ID NO: 185 (nucleic acid) TGCTGTTGACAGTGAGCGCCAGGAGCTACTTGATGAAATTTAGTGAAGCCACAGATGTAAATTTCATCAAGTAGCTCCTGATGCCTACTGCCTCGGA")
9.60
>>> endpoint_result("Centa1.1387: shRNA, SEQ ID NO: 105 (nucleic acid) TGCTGTTGACAGTGAGCGCCAGAACCTCATTAAAGTTGAATAGTGAAGCCACAGATGTATTCAACTTTAATGAGGTTCTGATGCCTACTGCCTCGGA")
11.44
